Tested on: Human astrocytoma cell line CCF-STTG1
Assay: Lactate release screening assay (fluorescent enzymatic assay)
Format: cell-based
Conditions: CCF-STTG1, supernatants after 2 hours
Label met for high-side Primary screen % (at or above 80%) and not met for low-side Primary screen % (below it).

- compound: "CC(/C=C/[C@@]1(C)[C@H](C)CCC(=O)[C@@H]1C)=C\\Cc1c(O)cc(C)c(C=O)c1O"
  category-label: "met"
- compound: "C/C(=C\\Cc1c(O)cc(C)c(C=O)c1O)CC[C@@]1(C)[C@H](C)CCC(=O)[C@@H]1C [22562-68-1, Antibiotic LL-Z 1272ε]"
  category-label: "not met"
- compound: "CC(/C=C/C1(C)C(C)C=CC(=O)C1C)=C\\Cc1c(O)c(Cl)c(C)c(C=O)c1O (stereo not shown)"
  category-label: "not met"
- compound: "COc1cc(CCc2ccccc2)c(C(=O)O)c(O)c1CC=C(C)C"
  category-label: "met"
- compound: "C/C(=C\\Cc1c(O)c(Cl)c(C)c(C=O)c1O)CC[C@@]1(C)[C@H](C)CCC(=O)[C@@H]1C"
  category-label: "not met"
- compound: "CC(=O)OC(C[C@@]1(C)[C@H](C)CCC(=O)[C@@H]1C)/C(C)=C/Cc1c(O)c(Cl)c(C)c(C=O)c1O (stereo partly shown)"
  category-label: "met"
